Biological target: acetylcholine receptor
Test: SPR, peptide at 10 uM on immobilized AchR
Note to self: values exactly at 40 RU are True. So Binding affinity (RU) at or above 40 RU is True, below is False.

Below are worked cases with known answers.
[[record]]
binder = "RKTDRR [6mer-2-1089]"
cat = "True"

[[record]]
binder = "KAKNKR [6mer-2-1036]"
cat = "False"

[[record]]
binder = "KHDMKK [6mer-2-1069]"
cat = "False"

[[record]]
binder = "RATMRR [6mer-2-1006]"
cat = "False"


Req: Identify whether the reported Binding affinity (RU) of the following binder is 40 RU or greater: RAKFRR [6mer-2-1092]
Resp: False

Req: Identify whether the reported Binding affinity (RU) of the following binder is 40 RU or greater: RDEIRK [6mer-2-1067]
Resp: False

Req: Identify whether the reported Binding affinity (RU) of the following binder is 40 RU or greater: KETVKR [6mer-2-1032]
Resp: False

Req: Identify whether the reported Binding affinity (RU) of the following binder is 40 RU or greater: RFWEKK [6mer-2-1097]
Resp: False

Req: Identify whether the reported Binding affinity (RU) of the following binder is 40 RU or greater: RPHVRR [6mer-2-1070]
Resp: False

Req: Identify whether the reported Binding affinity (RU) of the following binder is 40 RU or greater: KMSPRR [6mer-2-1049]
Resp: False

Req: Identify whether the reported Binding affinity (RU) of the following binder is 40 RU or greater: RKKFKK [6mer-2-1001]
Resp: False

Req: Identify whether the reported Binding affinity (RU) of the following binder is 40 RU or greater: RFDNKR [6mer-2-1091]
Resp: False
